Molecular target: ERG (Homo sapiens, UniProt P11308)
Sequence (P11308 1-462 isoform P11308-1): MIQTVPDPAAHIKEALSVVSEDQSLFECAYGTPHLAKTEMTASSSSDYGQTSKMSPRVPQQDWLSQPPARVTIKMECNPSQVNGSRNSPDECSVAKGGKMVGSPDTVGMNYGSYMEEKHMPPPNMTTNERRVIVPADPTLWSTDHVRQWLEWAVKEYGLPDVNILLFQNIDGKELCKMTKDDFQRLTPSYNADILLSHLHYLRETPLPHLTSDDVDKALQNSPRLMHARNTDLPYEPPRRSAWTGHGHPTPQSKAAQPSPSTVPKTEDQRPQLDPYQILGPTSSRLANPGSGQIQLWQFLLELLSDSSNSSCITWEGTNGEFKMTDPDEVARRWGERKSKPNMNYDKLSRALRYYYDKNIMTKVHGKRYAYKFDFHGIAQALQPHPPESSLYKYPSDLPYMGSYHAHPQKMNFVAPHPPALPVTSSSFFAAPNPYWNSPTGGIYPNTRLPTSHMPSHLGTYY
Test: Time-dependent ERG-DNA fluorescence polarization assay
Conditions: time-dependent inhibition of ERG-DNA binding, irreversible inhibitor
readout.type: Ki (µM)
Numeric only. Scale: µM

Query string: Tell me the measured Ki of Cc1ccc(-c2nc3cc(Cl)c(NC(=O)CCOCCn4cc(COCCOCCOc5ccc(S(=O)(=O)C6CCN(C(=O)/C=C/c7cc8ccccc8o7)C6)cc5)nn4)cc3o2)cc1 (stereo not shown) [KK-36-25] , please.
Result string: 6.3

====

Target: UniProt P19419
Sequence (P19419 1-428): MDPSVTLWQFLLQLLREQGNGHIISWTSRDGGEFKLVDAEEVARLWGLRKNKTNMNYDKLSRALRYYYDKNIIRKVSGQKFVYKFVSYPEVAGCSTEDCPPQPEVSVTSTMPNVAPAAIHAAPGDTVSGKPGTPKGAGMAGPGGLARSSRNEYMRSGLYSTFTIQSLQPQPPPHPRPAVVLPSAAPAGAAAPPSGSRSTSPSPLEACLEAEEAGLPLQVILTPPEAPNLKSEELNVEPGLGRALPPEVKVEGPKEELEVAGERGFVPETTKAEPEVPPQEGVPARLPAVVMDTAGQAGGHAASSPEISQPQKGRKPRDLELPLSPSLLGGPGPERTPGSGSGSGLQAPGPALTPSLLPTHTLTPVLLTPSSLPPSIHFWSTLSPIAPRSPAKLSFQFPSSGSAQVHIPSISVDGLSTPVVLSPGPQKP
// IC50 lookup, one value per entry

- molecule: "Nc1ccc(Cl)c(-c2nc3ccccc3o2)c1 [Compound 9B5]"
  IC50: "> 2100 µM"
- molecule: "COc1cccc2cc(C(C)=O)oc12 [Compound 9F1]"
  IC50: "> 2000 µM"

Query string: Record lookup: for UniProt P19419, what IC50 belongs to Cc1ccc(OCC(=O)Nc2cccc(O)c2)cc1 [Compound 6H6] ?
Result string: > 4500 µM

Query string: For the record COc1ccc(-c2c(C(C)=O)oc3c(OC)cccc23)cc1 [KK-16-69] , what value of IC50 is listed for UniProt P19419?
Result string: > 2000 µM

====

Test system: Ewing's sarcoma cell lines
Assay: Growth of Ewing's sarcoma cell lines
Assay type: cell-based
Conditions: read-out: IC50 values for inhibition of the growth
pIC50: −log10 of the molar value.
Each item that follows carries a reported pIC50.

- molecule: "Cc1ccc(-c2nc3cc(Cl)c(NC(=O)CCOCCn4cc(COCCOCCOc5ccc(S(=O)(=O)C6CCN(C(=O)/C=C/c7cc8ccccc8o7)C6)cc5)nn4)cc3o2)cc1 (centres unmarked)"
  result: "≥ 6.00"

Query string: Which pIC50 is reported for this molecule? Cc1ccc(-c2nc3cc(Cl)c(NC(=O)CCOCCn4cc(COCCOCCOCCOc5ccc(S(=O)(=O)C6CCN(C(=O)/C=C/c7cc8ccccc8o7)C6)cc5)nn4)cc3o2)cc1 (centres unmarked)
Result string: ≥ 6.00

src = patent US20250361227A1
